assayEndpoint: melting point

compound: N=C1NC(=O)C(c2ccccc2Cl)S1 (stereo not shown)
assayEndpoint: melting point
recordedValue: 244 to 246 °C
//
compound: N=C(N)SC(C(=O)O)c1ccccc1 (stereo not shown)
assayEndpoint: melting point
recordedValue: 230 °C (dec.)
//
compound: CC1SC(=N)NC1=O (stereo not shown)
assayEndpoint: melting point
recordedValue: 224 to 228 °C (dec.)

With those in mind, consider the next compound.
INPUT: Give the measured melting point of N=C(N)SC(F)C(=O)O (stereo not shown) .
OUTPUT: 178 °C

###

- Tested on: VZV
- assayProcedure: CellTiter-Glo (Cytopathic effect/Toxicity) antiviral assay, U of Alabama / NIH
- Format: cell-based, Varicella zoster virus
- testConditions: VZV; tested at A (U of Alabama); read-out: EC50
assayEndpoint: EC50 (µM)
Unit µM implied. Number only.

INPUT: # get_value(readout= EC50, system= VZV) for CN(C)C(=N)NC(=N)N.O=C1CSC(=O)N1 [JIVA-005]
OUTPUT: 0.09

Reference for the values: patent US10646477B1
